Source: patent US20210292393A1

# Measurement Target: T1, SARS-CoV-2 spike protein (SARS-CoV-2, UniProt P0DTC2 14-1208)
# T1 construct: also called SARS-CoV-2 S protein; antigen of interest
# Protocol: HT-SPR, Carterra LSA; mAb coupled to chip, antigen injected; 1:1 fit
Endpoint Name: Kd (nM)
Give bare numbers, in nM.

Study these solved cases before continuing.
**Q:** Return reported Kd; argument: antibody 559 (antibody, V domains shown) VH: QVQLQESGPGLVKLSETLSLTCTVSGYSISSGYYWGWIRQPPGKGLEWIGSIYHSGSTYYNPSLKSRVTISVDTSKNQFSLKLSSVTAADTAVYYCAREETLGSSWYESYIDYWGQGTLVTVSS VL: SYVLTQPPSVSVAPGKTARITCGGNNIGSKSVHWYQQKPGQAPVLVIYYDSDRPSGIPERFSGSNSGNTATLTISRVEAGDEADYYCQVWDSSSDHPRVFGGGTKLTVL
**A:** 32.2

**Q:** Returns the measured Kd for the input binder. Input: antibody 562 (antibody, V domains shown) VH: QVQLVESGGGVVQPGRSLRLSCAASGFTFSSYAMHWVRQAPGKGLEWVAVISYDGSNKYYADSVKGRFTISRDNSKNTLYLQMNSLRAEDTAVYYCARASSGGYQGPFDPWGQGTLVTVSS VL: QSALTQPASVSGSPGQSITISCTGTSSDVGGYNYVSWYQQHPGKAPKLMIYDVSNRPSGVSNRFSGSKSGNTASLTISGLQAEDEADYYCSSYTSSSTLLYVFGTGTKVTVLG
**A:** 0.0211

**Q:** Returns the measured Kd for the input binder. Input: antibody 501 (antibody, V domains shown) VH: QVQLVQSGAEVKKPGASVKVSCKASGYTFTSYYVHWVRQAPGQSLEWMGVISPSTGSTTYAQNFQGRVTMTRDTSTTTVYMELSSLRSEDTAVYYCARDDYYDSTRYFDLWGRGTLVTVSS VL: QSALTQPASVSGSPGQSISFSCTGTSSDIGAYNYVSWYQQHPGRAPKLMIYDVGNRPSGVSNRFSGSKSGNTASLTISGLQAEDEADYYCSSYTSSSTQVFGTGTKVTVL
**A:** 8.78

**Q:** Query: Kd; subject: antibody 558 (antibody, V domains shown) VH: QVQLVESGGGVVQPGRSLRLSCAASGFTFSSYAMHWVRQAPGKGLEWVAVISYDGSNKYYADSVKGRFTISRDNSKNTLYLQMNSLRAEDTAVYYCARGQGGGYYYGMDVWGQGTTVTVSS VL: QSALTQPASVSGSPGQSITISCTGTSSDVGGYNYVSWYQQHPGKAPKLMIYDVSNRPSGVSNRFSGSKSGNTASLTISGLQAEDEADYYCSSYTSSSTLYVFGTGTKVTVL
**A:** 0.237

**Q:** # input binder: antibody 528 (antibody, V domains shown, also called mAb 528) VH: QVQLVQSGAEVKKPGSSVKVSCKASGGTFNSNSISWVRQAPGQGLEWMGRIIPILDITMYARKFQGRVTISADKSTGTAYMDLSSLRSEDTAVYYCATDRDDSSGDYYYGMDVWGQGTTVTVSS VL: DIQMTQSPSSLSASVGDRVTITCRASLSISNYLNWYQQKPGKAPNLLIYAASTLQSGVPSRFSGSGSGTDFTLTISSLQPEDFATYYCQQTYITRWTFGQGTKVEIK ; wanted: its Kd
**A:** 0.509

More entries:
**Q:** Record request: Kd value, item antibody 513 (antibody, V domains shown) VH: QVQLVESGGGVVQPGRSLRLSCAASGFTFSSYAMHWVRQAPGKGLEWVAVISYDGSNKYYADSVKGRFTISRDNSKNTLYLQMNSLRAEDTAVYYCARAGSGSYYNWFDPWGQGTLVTVSS VL: QSALTQPASVSGSPGQSITISCTGTSSDVGGYNYVSWYQQHPGKAPKLMIYEVSNRPSGVSNRFSGSKSGNTASLTISGLQAEDEADYYCSSYTSSSTPYVFGTGTKVTVL
**A:** 0.0996
